These measurements were taken from patent US5153180A.

Test system: HIV
test_description: Inhibition of the cytopathic effect of HIV on MT-4 cells
Format: cell-based
settings: Human immunodeficiency virus 1, MT4, 144 h; read-out: ED50 (the source's name)

molecule: Cc1cn([C@H]2C[C@H](F)[C@@H](CO)O2)c(=O)[nH]c1=O [FTdR, 2',3'-dideoxy-3'-fluorothymidine]
EC50 (nM): 3

---

Tested on: K-562 acute myeloic leukemia
test_description: Inhibition of proliferation of K-562 cells
Type: cell-based
settings: Homo sapiens, K562, read-out: CD50

compound: Cc1cn([C@H]2C[C@H](N=[N+]=[N-])[C@@H](CO)O2)c(=O)[nH]c1=O [N3 -TdR, 3'-azido-2',3'-dideoxythymidine, reference compound]
system: K-562 acute myeloic leukemia
IC50 / µM: 50

---

System: K-37 immortalized T-cells
test_description: Inhibition of proliferation of K-37 cells
Type: cell-based
settings: Homo sapiens, T-cell, read-out: CD50
value_kind: IC50 (µM)

compound: Cc1cn([C@H]2C[C@H](N=[N+]=[N-])[C@@H](CO)O2)c(=O)[nH]c1=O [N3 -TdR, 3'-azido-2',3'-dideoxythymidine, reference compound]
value_kind: IC50
meas_value: 500

---

system: HIV-associated reverse transcriptase (HIV-RT) (Human immunodeficiency virus type 1 group M subtype B)
Construct: HIV-associated reverse transcriptase (HIV-RT)
test_description: Inhibition of HIV-associated reverse transcriptase (polymerization of artificial templates)
Assay type: biochemical
settings: read-out: ID50 HIV-associated reverse transcriptase
pIC50: −log10 of the molar value.

compound: Cc1cn([C@H]2C[C@H](F)[C@@H](COP(=O)(O)OP(=O)(O)OP(=O)(O)O)O2)c(=O)[nH]c1=O [FdTTP]
pIC50: 7.30

---

system: HIV-associated reverse transcriptase (HIV-RT) (Human immunodeficiency virus type 1 group M subtype B)
Construct: HIV-associated reverse transcriptase (HIV-RT)
test_description: Inhibition of HIV-associated reverse transcriptase (polymerization of artificial templates)
Format: biochemical
settings: estimated under our conditions; read-out: ID50 HIV-RT
pIC50: −log10 of the molar value.
value_kind: pIC50

compound: Cc1cn([C@H]2C[C@H](N=[N+]=[N-])[C@@H](CO[P@](=O)(O)O[P@](=O)(O)OP(=O)(O)O)O2)c(=O)[nH]c1=O [3'-azidothymidinetriphosphate, reference compound]
value_kind: pIC50
meas_value: ~4.30

---

system: HIV-associated reverse transcriptase (HIV-RT) (Human immunodeficiency virus type 1 group M subtype B)
Construct: HIV-associated reverse transcriptase (HIV-RT)
test_description: Inhibition of HIV-associated reverse transcriptase (polymerization of artificial templates)
Assay type: biochemical
settings: concentration required for 50% inhibition; read-out: ID50 HIV-RT
pIC50: −log10 of the molar value.
Consider the following compounds and their measured pIC50 readings.
value_kind: pIC50

substance_smiles: CCc1cn([C@H]2C[C@H](F)[C@@H](COP(=O)(O)OP(=O)(O)OP(=O)(O)O)O2)c(=O)[nH]c1=O
meas_value: 5.12
//
substance_smiles: Nc1nc2c(ncn2[C@H]2C[C@H](F)[C@@H](COP(=O)(O)OP(=O)(O)OP(=O)(O)O)O2)c(=O)[nH]1
meas_value: 7.30
//
substance_smiles: O=c1ccn([C@H]2C[C@H](F)[C@@H](COP(=O)(O)OP(=O)(O)OP(=O)(O)O)O2)c(=O)[nH]1
meas_value: 7.15
//
substance_smiles: O=c1[nH]c(=O)n([C@H]2C[C@H](F)[C@@H](COP(=O)(O)OP(=O)(O)OP(=O)(O)O)O2)cc1F
meas_value: 6.35
